Record form. Attribute: cell viability. Fill in for each entry.
# System: Caco-2
# method: cell viability relative to DMSO; higher = less toxic
# reported conditions: 72 h; 100 nM
Number first, unit second.

Ask: Request - read-out cell viability | tested on Caco-2 | compound O=C(NCC(=O)N1CCCCC1)Nc1ccc2nnsc2c1
Reply: 95.4%

Ask: Query cell viability on Caco-2 for CC(C)(Oc1ccc(C(=O)c2ccc(Cl)cc2)cc1)C(=O)O
Reply: 91.9%

Ask: What value of cell viability on Caco-2 does C[C@]1(O)C[C@@H](c2nc(-c3ccc4ccc(-c5ccccc5)nc4c3)c3c(N)nccn32)C1 have?
Reply: 84.7%

Ask: Value wanted: cell viability (Caco-2) of entry Cn1c(COP(=O)(NCCBr)NCCBr)cnc1[N+](=O)[O-]
Reply: 98.6%

Ask: Lookup: cell viability / Caco-2 / CCN(CCO)CCCOc1ccc2c(Nc3cc(CC(=O)Nc4cccc(F)c4)[nH]n3)ncnc2c1
Reply: 78.4%

Ask: # value lookup — system Caco-2, readout cell viability, item CC/C(=C(/CC)c1ccc(OP(=O)(O)O)cc1)c1ccc(OP(=O)(O)O)cc1
Reply: 97.2%

Ask: Form field: cell viability recorded for COc1cc2nc(N3CCN(C(=O)c4ccco4)CC3)nc(N)c2cc1OC with Caco-2 (enter value)
Reply: 98.4%

Ask: Caco-2 / cell viability / COC(=O)[C@H](c1ccccc1Cl)N1CCc2sccc2C1 : value?
Reply: 95.1%

----------
# Tested on: Caco-2
# method: cell viability relative to DMSO; higher = less toxic
# reported conditions: 72 h; 1000 nM
metric name: cell viability (%)
Answer format: numeric, % implied, no suffix.

Ask: Entry NC(=O)c1noc([C@H](CCCC2CCCCC2)CC(=O)NO)n1 : reported cell viability = ?
Reply: 88

Ask: Reported cell viability, compound O=C(OOC(=O)c1ccccc1)c1ccccc1 [benzoyl-peroxide] : ____
Reply: 91.2

Ask: Any idea what cell viability was measured for O=C(NCc1ccc(Oc2ccccc2)cc1)c1nc(-c2cc(Br)c(O)c(Br)c2)no1 [IOWH032] ?
Reply: 88.4

Ask: I would be grateful if you could share the reported cell viability for O=C(OCCOCCO)c1ccccc1Nc1cccc(C(F)(F)F)c1 [etofenamate] .
Reply: 90.8

Ask: Entry O=C(/C=C/c1ccc(O)c(O)c1)OCCc1ccccc1 [caffeic-acid-phenethyl-ester] has what cell viability?
Reply: 88.2

Ask: Which measured cell viability value corresponds to CNC(=O)Oc1ccccc1OC(C)C [propoxur] ?
Reply: 88.1

Ask: I am curious: what cell viability value has been reported for CC1CCN(CC[C@H]2CCCN2S(=O)(=O)c2cccc(O)c2)CC1 ?
Reply: 91.5

----------
Field: cell viability. Provide a value for each of the compounds that follow.
# System: Calu-3
# method: cell viability relative to DMSO; higher = less toxic
# reported conditions: 72 h; 1000 nM

Ask: What does the record list as cell viability for COc1ccc(CN2C(=O)C(=O)c3cc(OC(F)(F)F)ccc32)cc1 ?
Reply: 83%

Ask: I have this compound here, CC(=O)Nc1c(I)c(C(=O)O)c(I)c(N(C)C(C)=O)c1I , and I need its recorded cell viability.
Reply: 94.9%

Ask: May I ask what cell viability has been recorded for Cc1cccc(Oc2nc3c(C)cccn3c(=O)c2/C=C(\C#N)c2nc3ccccc3s2)c1 ?
Reply: 102%

Ask: Query: cell viability; subject: NC(=O)C(c1ccccc1)(c1ccc(F)cc1)c1ccc(F)cc1
Reply: 102%

Ask: What value of cell viability has been recorded for this entry: CC(=O)NCCc1c(Cc2ccccc2)[nH]c2ccccc12
Reply: 104%

Ask: Fill blank: measured cell viability of the compound O=C(Nc1ccc(S(=O)(=O)Nc2ccccc2Cl)c(Cl)c1)c1ccccn1 is ____.
Reply: 87.3%

Ask: I'd like to know its cell viability. The compound in question is COc1ccc2c(c1)[C@]13CCCC[C@@H]1[C@H](C2)N(C)CC3
Reply: 99.3%

Ask: Field request: cell viability | item: CS[C@H]1SC[C@H]2C(=O)N(C)[C@@H](C(C)C)C(=O)OC[C@@H](NC(=O)c3cnc4ccccc4n3)C(=O)N[C@@H](C)C(=O)N(C)[C@@H]1C(=O)N(C)[C@@H](C(C)C)C(=O)OC[C@@H](NC(=O)c1cnc3ccccc3n1)C(=O)N[C@@H](C)C(=O)N2C
Reply: 35.5%

Ask: Which cell viability reading was recorded for the compound Cc1cc(F)c(Nc2ncnc3cc(OCc4ccccc4)ccc23)cc1O ?
Reply: 104%

----------
Exercise: for every item that follows, state its recorded cell viability.
# Test system: U2OS
# method: cell viability relative to DMSO; higher = less toxic
# reported conditions: 72 h; 10 nM
# output: bare number, implied unit %

Ask: Short answer please: cell viability, U2OS, entry CC[C@@]1(O)C(=O)OCc2c1cc1n(c2=O)Cc2c-1nc1cc(F)c(C)c3c1c2[C@@H](N)CC3 [exatecan-mesylate]
Reply: 92

Ask: Test system U2OS; read-out cell viability; what value for O=C(Nc1ccc2[nH]ccc2c1)c1ccccc1 ?
Reply: 97.2

Ask: Give cell viability (U2OS) of the following compound: CC(C)[N+](C)(CCC(C(N)=O)(c1ccccc1)c1ccccc1)C(C)C [isopropamide-iodide]
Reply: 99.8

Ask: Any idea what cell viability came out for O=C(Nc1cccc(Br)c1)c1cccc(S(=O)(=O)N2CCCCCC2)c1 on U2OS?
Reply: 92.8

Ask: Short answer please: cell viability, U2OS, entry O=C(Nc1ccc(S(=O)(=O)Nc2ccccc2Cl)c(Cl)c1)c1ccccn1
Reply: 93.7

Ask: Write down the reported cell viability of CC(NCCc1ccc(O)cc1)C(O)c1ccc(O)cc1 (stereo unspecified) , test system: U2OS.
Reply: 102

----------
# System: Caco-2
# method: cell viability relative to DMSO; higher = less toxic
# reported conditions: 72 h; 10000 nM
Consider the following compounds; for each one, report its cell viability.
Please state the figure in %; there is no need to write the unit.

Ask: Quick check: cell viability of CC[C@@H]1/C=C(\C)C[C@H](C)C[C@H](OC)[C@H]2O[C@@](O)(C(=O)C(=O)N3CCCC[C@H]3C(=O)O[C@H](/C(C)=C/[C@@H]3CC[C@@H](O)[C@H](OC)C3)[C@H](C)[C@@H](O)CC1=O)[C@H](C)C[C@@H]2OC [ascomycin] ?
Reply: 84.5

Ask: Quick one: cell viability of CO[C@@]1(NC(=O)C(C(=O)O)c2ccc(O)cc2)C(=O)N2C(C(=O)O)=C(CSc3nnnn3C)CO[C@@H]21 (stereo partly specified) [moxalactam] ?
Reply: 105

Ask: Look up cell viability for this compound: CN(C)C(=O)n1nnnc1Cc1ccc(-c2ccccc2)cc1
Reply: 40.1

Ask: Please give the measured cell viability for this compound: c1ccc([C@H]2CNCc3ccccc32)cc1 [4-phenyl-1,2,3,4-tetrahydroisoquinoline]
Reply: 103

Ask: Endpoint output: cell viability of CCCCc1ncc(/C=C(\Cc2cccs2)C(=O)O)n1Cc1ccc(C(=O)O)cc1 [eprosartan] . Value?
Reply: 103

Ask: I would be grateful if you could share the reported cell viability for CO[C@@H]1[C@H](N(C)C(=O)c2ccccc2)C[C@H]2O[C@]1(C)n1c3ccccc3c3c4c(c5c6ccccc6n2c5c31)C(=O)NC4 [midostaurin] .
Reply: 63.3

Ask: # cell viability lookup, item COc1ccc2cc(CCC(C)=O)ccc2c1 [nabumetone]
Reply: 94.5

Ask: Given COC(=O)Nc1ccc(-c2nc(N3CCOCC3)c3cnn(C4CCN(C(=O)OC)CC4)c3n2)cc1 [WYE-354] , state its recorded cell viability.
Reply: 48.3

Ask: Which cell viability is reported for this compound? OC(CNCC(O)C1CCc2cc(F)ccc2O1)C1CCc2cc(F)ccc2O1 (stereo unspecified) [nebivolol]
Reply: 72.8

Ask: Request the reported cell viability associated with COc1cc(N)c(Cl)cc1C(=O)OCCN1CCCCC1
Reply: 110

Ask: Fill blank: measured cell viability of the compound C=CC[N@@+]12CC[C@@]34c5ccccc5N5/C=C6/[C@H]7C[C@H]8[C@@]9(CC[N@@+]8(CC=C)C/C7=C/CO)c7ccccc7N(/C=C(/[C@@H](C[C@@H]31)/C(=C\CO)C2)[C@H]54)[C@@H]69 [alcuronium] is ____.
Reply: 107

----------
# Tested on: Caco-2
# method: cell viability relative to DMSO; higher = less toxic
# reported conditions: 72 h; 10 nM
Task for the reader: assign each of the following compounds its reported cell viability.
Entry rule: numbers only, all in %.

Ask: Name the recorded cell viability for O=C(O)C[C@H](O)C[C@H](O)/C=C/c1c(C2CC2)nc2ccccc2c1-c1ccc(F)cc1 .
Reply: 93.6

Ask: Quick check: cell viability of O=C(Nc1cccc(Cl)c1)c1ccccn1 ?
Reply: 102

Ask: Field request: cell viability | item: CC(=O)c1ccc2c(c1)N(CCCN(C)C)c1ccccc1S2
Reply: 93.1

Ask: Record request: cell viability value, item CCc1c2c(nc3ccc(OC(=O)N4CCC(N5CCCCC5)CC4)cc13)-c1cc3c(c(=O)n1C2)COC(=O)[C@]3(O)CC
Reply: 91.6

Ask: # lookup: cell viability of O=C(Oc1ccc([N+](=O)[O-])cc1)N1CCN(Cc2cccc(Oc3ccccc3)c2)CC1
Reply: 94.7

Ask: Name the reported cell viability value associated with the compound O=C(O)C1CSCN1 (stereo not drawn)
Reply: 102

Ask: Need cell viability, item Cc1cc(F)c(Nc2ncnc3cc(OCc4ccccc4)ccc23)cc1O
Reply: 96.6

Ask: Query (compound): COc1cc2nc(N3CCN(C(=O)c4ccco4)CC3)nc(N)c2cc1OC ; field requested: cell viability
Reply: 91.2

Ask: Consider the compound CC(C)N(CC[C@H](c1ccccc1)c1cc(CO)ccc1O)C(C)C [5-hydroxymethyl-tolterodine] and give its measured cell viability.
Reply: 87.9

Ask: Would you kindly share the measured cell viability for COC(=O)Nc1ccc(-c2nc(N3CCOCC3)c3cnn(C4CCN(Cc5cccnc5)CC4)c3n2)cc1 ?
Reply: 93.9

Ask: Look at this compound and give its reported cell viability. COc1ccc(-c2sc(NC(=O)C(C)(C)C)nc2C)cc1S(=O)(=O)Nc1ccc(O)cc1
Reply: 97

Ask: State the recorded cell viability for this entry: COc1cc(N)c(Cl)cc1C(=O)OCCN1CCCCC1
Reply: 97.6

Ask: What value of cell viability has been recorded for this entry: O=c1ccc2cc(O[C@@H]3O[C@H](CO)[C@@H](O)[C@H](O)[C@H]3O)c(O)cc2o1
Reply: 105
